TESTED TARGET: Metabotropic glutamate receptor 4 (Homo sapiens, UniProt Q14833)
Sequence (Q14833 whole entry): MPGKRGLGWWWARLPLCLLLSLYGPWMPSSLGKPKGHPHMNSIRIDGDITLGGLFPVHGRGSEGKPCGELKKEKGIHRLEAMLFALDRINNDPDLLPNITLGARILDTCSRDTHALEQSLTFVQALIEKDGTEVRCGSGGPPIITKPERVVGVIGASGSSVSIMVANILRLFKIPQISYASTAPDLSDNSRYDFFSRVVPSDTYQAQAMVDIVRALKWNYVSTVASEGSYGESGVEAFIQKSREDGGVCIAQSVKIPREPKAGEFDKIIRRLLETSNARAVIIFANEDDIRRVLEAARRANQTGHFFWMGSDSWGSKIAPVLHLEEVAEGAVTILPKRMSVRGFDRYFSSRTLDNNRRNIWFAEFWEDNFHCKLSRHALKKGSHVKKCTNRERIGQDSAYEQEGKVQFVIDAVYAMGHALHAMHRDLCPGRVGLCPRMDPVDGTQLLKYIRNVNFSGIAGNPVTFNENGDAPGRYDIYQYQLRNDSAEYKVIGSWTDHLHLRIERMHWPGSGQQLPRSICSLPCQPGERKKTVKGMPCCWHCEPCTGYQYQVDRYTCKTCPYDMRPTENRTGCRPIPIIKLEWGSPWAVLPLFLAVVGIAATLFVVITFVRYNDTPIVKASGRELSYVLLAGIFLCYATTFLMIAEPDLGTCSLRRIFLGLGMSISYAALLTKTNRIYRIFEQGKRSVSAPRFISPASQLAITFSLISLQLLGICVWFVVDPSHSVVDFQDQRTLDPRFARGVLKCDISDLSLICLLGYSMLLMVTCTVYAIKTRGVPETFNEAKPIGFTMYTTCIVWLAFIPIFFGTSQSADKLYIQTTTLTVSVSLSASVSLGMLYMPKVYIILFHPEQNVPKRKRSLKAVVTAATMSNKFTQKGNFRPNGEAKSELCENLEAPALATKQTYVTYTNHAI
PROCEDURE TEXT: Positive allosteric modulation of human mGlu4 receptor expressed in CHO cells assessed as potentiation of glutamate-induced calcium mobilization relative to PHCCC
Assay type: functional, cell-based
Categories are assigned from the measured Emax using these intervals: bottom end = under 30%, midrange = from 30% up to 60%, top end = 60% and over

Observe how each entry below is paired with its result.
>  <SMILES STRUCTURE>
O=C(Nc1ccc(S(=O)(=O)Nc2ccccc2Cl)cc1)c1ccccn1

>  <LABEL VALUE>
top end

$$$$
>  <SMILES STRUCTURE>
O=C(Nc1ccc(S(=O)(=O)Nc2ccccc2Cl)cc1Cl)c1ccccn1

>  <LABEL VALUE>
bottom end

$$$$
>  <SMILES STRUCTURE>
O=C(Nc1ccc(S(=O)(=O)NC2CC2)cc1)c1ccccn1

>  <LABEL VALUE>
bottom end

$$$$
>  <SMILES STRUCTURE>
O=C(Nc1ccc(S(=O)(=O)NCC2CC2)cc1)c1ccccn1

>  <LABEL VALUE>
top end

$$$$
>  <SMILES STRUCTURE>
O=C(Nc1ccc(S(=O)(=O)Nc2ccccc2)cc1)c1ccccn1

>  <LABEL VALUE>
top end

$$$$

Lab note: sort O=C(Nc1ccc(S(=O)(=O)N2CCCC2)cc1)c1ccccn1 into the matching Emax band.
bottom end

Lab note: sort O=C(Nc1ccc(S(=O)(=O)Nc2ccccc2Cl)cc1)c1ccsc1 into the matching Emax band.
midrange

Lab note: sort COCCNS(=O)(=O)c1ccc(NC(=O)c2ccccn2)cc1 into the matching Emax band.
bottom end

Lab note: sort O=C(Nc1ccc(S(=O)(=O)N2CCc3ccccc32)cc1)c1ccccn1 into the matching Emax band.
bottom end

Lab note: sort O=C(Nc1ccc(S(=O)(=O)Nc2ccc(Cl)c(C(F)(F)F)c2)cc1)c1ccccn1 into the matching Emax band.
bottom end

Lab note: sort Cc1cc(C)c(NS(=O)(=O)c2ccc(NC(=O)c3ccco3)cc2)c(C)c1 into the matching Emax band.
midrange

Lab note: sort CN(c1ccccc1Cl)S(=O)(=O)c1ccc(NC(=O)c2nccs2)cc1 into the matching Emax band.
bottom end

Lab note: sort O=C(Nc1ccc(S(=O)(=O)Nc2ccccc2Cl)cc1)c1ccncn1 into the matching Emax band.
top end

Lab note: sort O=C(Nc1ccc(S(=O)(=O)Cc2ccccc2Cl)cc1)c1ccccn1 into the matching Emax band.
midrange

Lab note: sort O=C(Nc1ccc(S(=O)(=O)Nc2ccccc2F)cc1)c1ccccn1 into the matching Emax band.
top end

Lab note: sort O=C(Nc1ccc(S(=O)(=O)Nc2ccccc2Cl)cc1)c1nccs1 into the matching Emax band.
top end

Lab note: sort CN(c1ccccc1Cl)S(=O)(=O)c1ccc(NC(=O)c2ccncn2)cc1 into the matching Emax band.
midrange

Lab note: sort O=C(Nc1ccc(S(=O)(=O)NC2CCCCC2)cc1)c1ccccn1 into the matching Emax band.
top end

###

TESTED TARGET: Metabotropic glutamate receptor 4 (Homo sapiens, UniProt Q14833)
PROCEDURE TEXT: Positive allosteric modulation of human mGlu4 receptor expressed in CHO cells assessed as potentiation of glutamate-induced calcium mobilization
Assay type: functional, cell-based
ENDPOINT NAME: log10 EC50 (log10 of the value in µM)
Short version: log10 scale, EC50, µM.

Reference set, count: 3
>  <SMILES STRUCTURE>
Cc1cc(C)c(NS(=O)(=O)c2ccc(NC(=O)c3ccccn3)cc2)c(C)c1

>  <REPORTED MEASUREMENT>
-0.80

$$$$
>  <SMILES STRUCTURE>
O=C(Nc1ccc(S(=O)(=O)Nc2ccccc2Cl)cc1)c1ccccn1

>  <REPORTED MEASUREMENT>
-1.57

$$$$
>  <SMILES STRUCTURE>
O=C(Nc1ccc(S(=O)(=O)Nc2ccccc2F)cc1)c1ccccn1

>  <REPORTED MEASUREMENT>
-0.69

$$$$

Consider the molecule CC1CCN(S(=O)(=O)c2ccc(NC(=O)c3ccccn3)cc2)CC1 and give its recorded log10 EC50.
-0.43

Consider the molecule O=C(Nc1ccc(S(=O)(=O)Nc2cc(F)ccc2F)cc1)c1ccccn1 and give its recorded log10 EC50.
-0.49

Consider the molecule O=C(Nc1ccc(S(=O)(=O)Nc2ccccc2Cl)cc1)c1ccsc1 and give its recorded log10 EC50.
-0.57

Consider the molecule Cc1cc(C)c(NS(=O)(=O)c2ccc(NC(=O)c3ccco3)cc2)c(C)c1 and give its recorded log10 EC50.
0.78

Consider the molecule O=C(Nc1ccc(S(=O)(=O)Nc2ccccc2Cl)c(Cl)c1)c1ccccn1 and give its recorded log10 EC50.
-1.70

###

PROCEDURE TEXT: Fraction unbound in rat plasma
Format: ADME, cell-free
# if value of fraction unbound reaches 0.003, tag label 1; if it stays below, tag label 0

Observe how each entry below is paired with its result.
>  <SMILES STRUCTURE>
CN(c1ccccc1Cl)S(=O)(=O)c1ccc(NC(=O)c2ccncn2)cc1

>  <LABEL VALUE>
label 1

$$$$
>  <SMILES STRUCTURE>
CN(c1ccccc1Cl)S(=O)(=O)c1ccc(NC(=O)c2nccs2)cc1

>  <LABEL VALUE>
label 1

$$$$
>  <SMILES STRUCTURE>
O=C(Nc1ccc(S(=O)(=O)Nc2ccccc2Cl)cc1)c1nccs1

>  <LABEL VALUE>
label 0

$$$$

Answer whether fraction unbound of COc1ccccc1NS(=O)(=O)c1ccc(NC(=O)c2ccccn2)cc1OC is greater than or equal to 0.003.
label 1

Answer whether fraction unbound of Cc1cc(C)c(NS(=O)(=O)c2ccc(NC(=O)c3ccco3)cc2)c(C)c1 is greater than or equal to 0.003.
label 1

###

PROCEDURE TEXT: Metabolic stability in human liver microsomes assessed as compound remaining after 60 mins
Type: ADME, Microsome
CONDITION DETAILS: read-out: Stability
Lab note: cut-off is 0.6%. Strictly less in remaining at 1 h is Criterion met. Exactly 0.6% or more is Criterion not met.

>  <SMILES STRUCTURE>
CN(c1ccccc1Cl)S(=O)(=O)c1ccc(NC(=O)c2ccncn2)cc1

>  <LABEL VALUE>
Criterion not met

$$$$
>  <SMILES STRUCTURE>
CN(c1ccccc1Cl)S(=O)(=O)c1ccc(NC(=O)c2nccs2)cc1

>  <LABEL VALUE>
Criterion met

$$$$
>  <SMILES STRUCTURE>
COc1ccccc1NS(=O)(=O)c1ccc(NC(=O)c2ccccn2)cc1OC

>  <LABEL VALUE>
Criterion not met

$$$$
>  <SMILES STRUCTURE>
O=C(Nc1ccc(Cl)c(S(=O)(=O)Nc2ccccc2Cl)c1)c1ccccn1

>  <LABEL VALUE>
Criterion not met

$$$$
>  <SMILES STRUCTURE>
O=C(Nc1ccc(S(=O)(=O)Nc2ccccc2Cl)cc1)c1nccs1

>  <LABEL VALUE>
Criterion not met

$$$$
>  <SMILES STRUCTURE>
O=C(Nc1ccc(S(=O)(=O)Nc2ccccc2Cl)cc1)c1ccccn1

>  <LABEL VALUE>
Criterion met

$$$$

We next turn to a different compound, shown below.
State whether 0.6% exceeds remaining at 1 h recorded for O=C(Nc1ccc(S(=O)(=O)Nc2ccccc2Cl)c(Cl)c1)c1ccccn1 .
Criterion not met

###

remaining at 1 h values for the compounds below.
PROCEDURE TEXT: Metabolic stability in rat liver microsomes assessed as compound remaining after 60 mins
Assay type: ADME, Microsome
CONDITION DETAILS: read-out: Stability

Reference set, count: 3
>  <SMILES STRUCTURE>
CN(c1ccccc1Cl)S(=O)(=O)c1ccc(NC(=O)c2ccncn2)cc1

>  <remaining at 1 h>
3.3%

$$$$
>  <SMILES STRUCTURE>
O=C(Nc1ccc(Cl)c(S(=O)(=O)Nc2ccccc2Cl)c1)c1ccccn1

>  <remaining at 1 h>
0.05%

$$$$
>  <SMILES STRUCTURE>
O=C(Nc1ccc(S(=O)(=O)Nc2ccccc2Cl)cc1)c1nccs1

>  <remaining at 1 h>
1.2%

$$$$

Consider the compound CN(c1ccccc1Cl)S(=O)(=O)c1ccc(NC(=O)c2nccs2)cc1 and give its recorded remaining at 1 h.
0.08%

Consider the compound Cc1cc(C)c(NS(=O)(=O)c2ccc(NC(=O)c3ccco3)cc2)c(C)c1 and give its recorded remaining at 1 h.
93.3%

Consider the compound O=C(Nc1ccc(S(=O)(=O)Nc2ccccc2Cl)c(Cl)c1)c1ccccn1 and give its recorded remaining at 1 h.
0.02%

Consider the compound Cc1cc(C)c(NS(=O)(=O)c2ccc(NC(=O)c3ccccn3)cc2)c(C)c1 and give its recorded remaining at 1 h.
25.8%

Consider the compound COc1ccccc1NS(=O)(=O)c1ccc(NC(=O)c2ccccn2)cc1OC and give its recorded remaining at 1 h.
0.05%

Consider the compound O=C(Nc1ccc(S(=O)(=O)Nc2ccccc2Cl)cc1)c1ccccn1 and give its recorded remaining at 1 h.
0.02%
